# System: CD2F1 mice, L1210 leukemia ip, survival T/C
# method_description: NCI In Vivo Anticancer Drug Screen. Data for tumor model L1210 Leukemia (intraperitoneal) in CD2F1 (CDF1) mice
# protocol_conditions: endpoint: mean survival time; dose: 100.0 mg/kg/injection; schedule: Q04DX003 (ip); vehicle: saline with Tween-80; higher = longer survival
Toxic doses and inconclusive results are not listed.
assay_readout: T/C

Examples from the recorded data:
[[record]]
compound = "CC1(C)C=C(Cc2ccccc2)C(=O)c2ccccc21"
observed_measurement = "96 % of control"

[[record]]
compound = "CN(CC[NH-])CC[NH-].[I][Pt]"
observed_measurement = "100 % of control"

[[record]]
compound = "CCC(C#N)C1=CCCCCC1 (stereo unspecified)"
observed_measurement = "103 % of control"

[[record]]
compound = "COC(=O)c1cc(NC(C)=O)ccc1S(=O)(=O)c1ccc(NC(C)=O)cc1C(=O)OC"
observed_measurement = "101 % of control"

[[record]]
compound = "[NH-]c1ccccc1C(=O)O.[NH-]c1ccccc1C(=O)O.[Ni+2]"
observed_measurement = "93 % of control"


// next item, T/C requested
T/C for O=[N+]([O-])c1ccc(N2CCOCC2)c([N+](=O)[O-])c1 ?
97 % of control

###

# System: CD2F1 mice, L1210 leukemia ip, survival T/C
# method_description: NCI In Vivo Anticancer Drug Screen. Data for tumor model L1210 Leukemia (intraperitoneal) in CD2F1 (CDF1) mice
# protocol_conditions: endpoint: mean survival time; dose: 50.0 mg/kg/injection; schedule: Q04DX003 (ip); vehicle: saline with Tween-80; higher = longer survival
Inconclusive results and toxic doses are left out.
assay_readout: T/C

[[record]]
compound = "O=C(NCCN1CC1)c1ccccc1C(=O)NCCN1CC1"
measured_on = "CD2F1 mice, L1210 leukemia ip, survival T/C"
observed_measurement = "100 % of control"

[[record]]
compound = "COc1cc(NC(=O)CCl)ccc(=O)c1"
measured_on = "CD2F1 mice, L1210 leukemia ip, survival T/C"
observed_measurement = "94 % of control"

[[record]]
compound = "CC([NH-])CC[NH-].[I][Pt+2][I] (stereo not drawn)"
measured_on = "CD2F1 mice, L1210 leukemia ip, survival T/C"
observed_measurement = "109 % of control"


Your task in this section: give T/C for each listed record.
1. CC1(C)CCC(C#N)=C1N
2. Cc1cc(F)ccc1[NH-].Cc1cc(F)ccc1[NH-].[Cl][Pt+2][Cl]
3. O=C1C(=O)C(Cl)=C(Cl)C(Cl)=C1Cl
4. CCOC(=O)C12CCCCC1C/C(=N/NC(N)=O)CC2 (stereo not drawn)
5. CCCCCCCCCCCCCCCC[n+]1cccc(C(=O)NCO)c1
6. C[As](C)[Se]CC1OC(O)C(O)C(O)C1O (stereo not drawn)
7. CCCC(Sc1nc(N)nc2nc[nH]c12)C(=O)O (stereo not drawn)
8. CCNC(=S)Nc1ccc(Cl)cc1

1. 91 % of control
2. 91 % of control
3. 104 % of control
4. 96 % of control
5. 103 % of control
6. 98 % of control
7. 110 % of control
8. 101 % of control

For every item in the list below, what is its measured T/C?
1. CN(N)c1cccc2c1CCCC2
2. Nc1ncnc2c1ncn2CCCl

["102 % of control", "96 % of control"]
